Origin of measurements: the supplement of paper PMC10567573

B1: TNXB (parent)
chain: FSEIRETSAKVNWMPPPSRADSFK

Variants of: B1
TEST_PROTOCOL: protein stability index of a GFP-peptide fusion (GPS, HEK-293T) (PSI 1-6); higher = more stable;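 also: lentivirally expressed fusions sorted by FACS into six bins by GFP to DsRed ratio, PSI derived from sequencing read proportions per bin multiplied by bin number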
ASSAY_CONDITIONS: c terminus: a fixed tail appended
Tick T if protein stability index is 3 or greater. Tick F if protein stability index is less than 3.

Form field: protein stability index at least 3? Entry: "S18C"
T

protein stability index >= 3 for "P17E" ?
T

Could you tell me if the measured protein stability index of "S22E" reaches 3 or more?
T

Check this variant for protein stability index at or above 3: "R5E"
T

Check if protein stability index >= 3 (inclusive). Item: "E3P"
F

Given the entry "I4K" , answer whether its protein stability index meets or surpasses 3.
T

Hi, just wondering whether "A20E" shows protein stability index of 3 or higher.
T

Identify whether the reported protein stability index of the following variant is 3 or greater: "P15C"
F

Entry "T7C" : is its protein stability index no less than 3?
T

I'd appreciate it if you could say whether "F23N" has protein stability index at least equal to 3.
T

State whether the measured protein stability index reaches 3, counting equality as reaching it, for "S22L"
T

For this variant, is measured protein stability index 3 or higher? "R19T"
T

Decide: protein stability index of "S2R" >= 3?
T

Is the recorded value of protein stability index equal to or greater than 3 for this variant? "A9H"
T

Item "F23R" with protein stability index of 3 or above?
T

Test whether the variant "P16T" records protein stability index of 3 or higher.
T

Does the variant "K24Y" have recorded protein stability index that is 3 or more?
F
